Entries annotated with measured pEC50
Target: T1, cynomolgus TIGIT expressed on CHO-K1 cells (cynomolgus, UniProt A0A7N9I9V4 89-312)
T1 construct: whole, on cells; also called cynomolgus TIGIT over-expressing cell line
T1 sequence (A0A7N9I9V4 entry or part of it): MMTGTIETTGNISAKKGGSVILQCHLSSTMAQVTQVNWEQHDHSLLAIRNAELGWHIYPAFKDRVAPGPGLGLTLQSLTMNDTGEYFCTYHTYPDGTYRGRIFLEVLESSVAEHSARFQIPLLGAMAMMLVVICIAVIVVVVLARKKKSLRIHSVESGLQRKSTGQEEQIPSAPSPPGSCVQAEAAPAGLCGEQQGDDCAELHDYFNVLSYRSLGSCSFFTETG
Assay: flow cytometry on CHO-K1 cells expressing cynomolgus TIGIT
// returns pEC50 (minus log10 of molar concentration), number only

Here are 2 binders together with their reported answers.
>>> quantitative_result("huTIGIT-19-4 (antibody, human IgG1, kappa, V domains shown, Humanized IgG; also called 19VH4.M10 + 19VL1.M7) VH: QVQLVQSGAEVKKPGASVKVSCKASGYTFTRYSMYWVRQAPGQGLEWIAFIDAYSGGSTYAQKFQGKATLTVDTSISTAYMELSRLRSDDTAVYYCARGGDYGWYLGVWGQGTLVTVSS VL: DIQMTQSPSSLSASVGDRVTITCRASQSIYSYLSWYQQKPGKAPKLLIYNAKSLPSGVPSRFSGSGSGTDFTLTISSLQPEDFATYYCQHHYGNPLTFGQGTKVEIKR")
9.39
>>> quantitative_result("TIGIT-19 chimeric antibody (antibody, human IgG1, kappa, V domains shown, also called 19VH + 19VL) VH: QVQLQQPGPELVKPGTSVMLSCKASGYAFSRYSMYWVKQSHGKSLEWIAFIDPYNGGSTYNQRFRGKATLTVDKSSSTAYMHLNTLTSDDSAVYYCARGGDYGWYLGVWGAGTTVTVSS VL: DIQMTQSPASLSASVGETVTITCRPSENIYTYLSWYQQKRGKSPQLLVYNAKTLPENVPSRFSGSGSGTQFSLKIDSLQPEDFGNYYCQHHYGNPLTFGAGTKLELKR")
9.28

--- query ---
Request: Given the binder huTIGIT-6-3 (antibody, human IgG1, kappa, V domains shown, Humanized IgG; also called 6VH6.M6 + 6VL1.M1) VH: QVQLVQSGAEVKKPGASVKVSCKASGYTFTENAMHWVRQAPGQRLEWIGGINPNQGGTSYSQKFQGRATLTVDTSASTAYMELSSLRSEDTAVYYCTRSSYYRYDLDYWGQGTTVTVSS VL: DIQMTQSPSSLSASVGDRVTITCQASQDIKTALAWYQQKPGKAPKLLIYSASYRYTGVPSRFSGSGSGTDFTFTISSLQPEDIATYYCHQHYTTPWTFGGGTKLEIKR , write its reported pEC50.
Response: 8.09
